- protocolSummary: Aqueous solubility assay
- Assay type: physicochemical
- measurementParameters: PBS pH 7.4, 4 h, room temperature; replicate 1

substanceSmiles | Determined concentration Rep 1, µM
CC(C)C[C@@H]1NC(=O)[C@@H]2CCCN2C(=O)[C@@H]2CCCN2[C@H](C(=O)NC(C)(C)C)[C@H](C)NC(=O)[C@H]([C@@H](C)O)NC(=O)[C@H](CC(=O)O)NC1=O | 474.2
CC(C)C[C@@H]1NC(=O)[C@@H](Cc2ccc(O)cc2)NC(=O)[C@@H]2CCCN2[C@H](C(=O)NC(C)(C)C)[C@H](C)NC(=O)[C@H]([C@@H](C)O)NC(=O)[C@H](CC(=O)O)NC1=O | 966.6
CC(C)C[C@@H]1NC(=O)C2(Cc3ccccc3C2)NC(=O)[C@@H]2CCCN2[C@H](C(=O)NC(C)(C)C)[C@H](C)NC(=O)[C@H]([C@@H](C)O)NC(=O)[C@H](CC(=O)O)NC1=O | 874.4
CC(C)C[C@@H]1NC(=O)[C@H](CCCN)NC(=O)[C@@H]2CCCN2[C@H](C(=O)NC(C)(C)C)[C@H](C)NC(=O)[C@H]([C@@H](C)O)NC(=O)[C@H](CC(=O)O)NC1=O | 225.7
CC(C)C[C@@H]1NC(=O)CNC(=O)[C@H](Cc2ccc(O)cc2)NC(=O)[C@@H]2CCCN2[C@H](C(=O)NC(C)(C)C)[C@H](C)NC(=O)[C@H]([C@@H](C)O)NC(=O)[C@H](CC(=O)O)NC1=O | 225.4
